Target: T1, control peptide A2E-16/HLA-A*02:01 complex on T2 cells (member of the P19 mixture) (human)
T1 construct: Loaded on T2 cells as part of the mixture of 19 control peptides
Assay: flow cytometry, phage on T2 cells
Measure: binding result

- PSA146/HLA-A*02:01-specific scFv phage clone #6 (scFv, V domains shown) VH: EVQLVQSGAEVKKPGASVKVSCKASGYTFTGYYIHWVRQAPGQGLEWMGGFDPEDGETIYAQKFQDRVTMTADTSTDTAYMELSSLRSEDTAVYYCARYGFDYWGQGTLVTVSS VL: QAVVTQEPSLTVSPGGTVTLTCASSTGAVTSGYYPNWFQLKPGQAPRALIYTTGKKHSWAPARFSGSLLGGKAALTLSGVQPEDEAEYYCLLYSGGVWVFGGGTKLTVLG: no binding
- PSA146/HLA-A*02:01-specific scFv phage clone #13 (scFv, V domains shown) VH: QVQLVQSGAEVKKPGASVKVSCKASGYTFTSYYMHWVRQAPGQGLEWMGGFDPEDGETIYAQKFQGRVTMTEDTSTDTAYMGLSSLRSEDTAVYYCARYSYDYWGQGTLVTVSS VL: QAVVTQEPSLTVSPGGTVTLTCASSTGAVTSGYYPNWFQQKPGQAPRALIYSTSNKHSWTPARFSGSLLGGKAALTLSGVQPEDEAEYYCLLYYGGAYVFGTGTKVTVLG: no binding
- PSA146/HLA-A*02:01-specific scFv phage clone #17 (scFv, V domains shown) VH: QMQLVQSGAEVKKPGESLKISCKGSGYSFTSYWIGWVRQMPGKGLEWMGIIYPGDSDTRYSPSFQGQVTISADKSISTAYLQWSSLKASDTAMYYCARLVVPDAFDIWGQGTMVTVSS VL: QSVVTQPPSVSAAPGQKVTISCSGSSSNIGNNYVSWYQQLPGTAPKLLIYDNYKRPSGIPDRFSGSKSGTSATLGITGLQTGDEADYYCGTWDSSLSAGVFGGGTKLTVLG: no binding
